# target.of.assay: Full-length glucokinase (beta cell isoform) (Homo sapiens, UniProt P35557)
# Construct: Full-length glucokinase (beta cell isoform) was His-tagged at N-terminus; His tag (N); made in house
# Sequence (P35557 1-465): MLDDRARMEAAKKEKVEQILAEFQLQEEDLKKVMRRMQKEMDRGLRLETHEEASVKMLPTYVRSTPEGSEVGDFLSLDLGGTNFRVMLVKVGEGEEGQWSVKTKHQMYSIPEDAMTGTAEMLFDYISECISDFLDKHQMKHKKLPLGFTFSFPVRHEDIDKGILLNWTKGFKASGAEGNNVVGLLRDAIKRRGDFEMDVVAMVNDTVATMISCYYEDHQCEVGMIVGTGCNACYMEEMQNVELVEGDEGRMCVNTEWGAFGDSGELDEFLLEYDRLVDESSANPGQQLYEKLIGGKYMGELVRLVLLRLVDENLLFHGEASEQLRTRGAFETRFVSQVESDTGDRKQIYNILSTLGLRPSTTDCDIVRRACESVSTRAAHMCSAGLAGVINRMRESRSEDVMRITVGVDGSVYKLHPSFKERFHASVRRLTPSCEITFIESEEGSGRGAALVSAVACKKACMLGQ
# test: Glucokinase biochemical assay (PK/LDH-coupled, NADH depletion at 340 nm): % activation, EC50, % max activation
# condition.context: 10 uM compound; 5 mM glucose; % Activation=(Va/Vo−1)×100; read-out: % Activation at 10 uM
quantity: activation at 10 µM (%)
// return numeric value only (unit: %, not printed)

These recorded examples may help you get a feel for the data.
COC(=O)c1ccc(NC(=O)c2cc(Oc3ccc(S(C)(=O)=O)cc3)c3cc(C)oc3c2)nc1 : 80.5
Cc1cc2c(Oc3ccc(S(C)(=O)=O)cc3)cc(C(=O)Nc3ccc(Cl)cn3)cc2o1 : 53.1
Cc1cc2c(Oc3ccc(C(=O)N(C)C)c(F)c3)cc(C(=O)Nc3ccn(C)n3)cc2s1 : 25.9

// sample Cc1ccc(NC(=O)c2cc(Oc3ccc(S(C)(=O)=O)cc3)c3ncsc3c2)nc1 , its activation at 10 µM was 35.5

###

# target.of.assay: Full-length glucokinase (beta cell isoform) (Homo sapiens, UniProt P35557)
# Construct: Full-length glucokinase (beta cell isoform) was His-tagged at N-terminus; His tag (N); made in house
# test: Glucokinase biochemical assay (PK/LDH-coupled, NADH depletion at 340 nm): % activation, EC50, % max activation
# condition.context: 10 uM compound; 5 mM glucose; % Activation=(Va/Vo−1)×100; read-out: % Activation at 10 uM
# activation at 10 µM per entry
// return numeric value only (unit: %, not printed)

These recorded examples may help you get a feel for the data.
Cc1cc(NC(=O)c2cc(Oc3ccc(S(C)(=O)=O)cc3)c3cc(C)oc3c2)no1 : 18.8
Cn1ccc(NC(=O)c2cc(Oc3ccc(C(=O)N4CCOCC4)cc3F)c3c(c2)OC(C)(C)C3)n1 : 138
Cc1cc2c(OC3CN(S(C)(=O)=O)C3)cc(C(=O)Nc3cnn(C)n3)cc2o1 : 137
Cn1ccc(NC(=O)c2cc(Oc3ccc(-c4ncon4)nc3)c3c(c2)OC(C)(C)C3)n1 : 244
Cc1cc2c(Oc3ccc(S(=O)(=O)N4CCC4)cc3)cc(C(=O)Nc3ccn(C)n3)cc2o1 : 122

Summary: Cc1ccc(NC(=O)c2cc(Oc3ccc(C(=O)N(C)C)c(F)c3)c3ccsc3c2)nc1 , Full-length glucokinase (beta cell isoform) (Homo sapiens, UniProt P35557), activation at 10 µM = 50.4

Summary: CCc1cc2c(Oc3ccc(C(=O)N(C)C)cc3)cc(C(=O)Nc3ccc(C)cn3)cc2o1 , Full-length glucokinase (beta cell isoform) (Homo sapiens, UniProt P35557), activation at 10 µM = 20

Summary: Cc1cc2c(Oc3ccc(S(C)(=O)=O)cn3)cc(C(=O)Nc3cnc(N(C)C)cn3)cc2o1 , Full-length glucokinase (beta cell isoform) (Homo sapiens, UniProt P35557), activation at 10 µM = 130

Summary: Cn1ccc(NC(=O)c2cc(Oc3ccc(C(=O)N4CC(O)C4)cc3F)c3c(c2)OC(C)(C)C3)n1 , Full-length glucokinase (beta cell isoform) (Homo sapiens, UniProt P35557), activation at 10 µM = 150

Summary: CN(C)C(=O)c1ccc(Oc2cc(C(=O)Nc3ccn(C)n3)cc3ccsc23)cc1F , Full-length glucokinase (beta cell isoform) (Homo sapiens, UniProt P35557), activation at 10 µM = 6.4

Values compiled from patent US8119624B2.
